assay: clinical; settings: female, human, plasma, oral, 1 mg

- query smiles: "CC(C)(C#N)c1cc(Cn2cncn2)cc(C(C)(C)C#N)c1"
  readout units: "h"
  Tmax: 2

----------
test: clinical; conditions: female, human, plasma, oral, 0.5 mg

- query smiles: "CC(C)(C#N)c1cc(Cn2cncn2)cc(C(C)(C)C#N)c1"
  Cmax / ng/mL: 5.97

----------
experiment: clinical; settings: female, human, plasma, oral, 3 mg, mean half-life, after the first dose of 3 mg

- query smiles: "CC(C)(C#N)c1cc(Cn2cncn2)cc(C(C)(C)C#N)c1"
  readout units: "h"
  half-life: 50.7

----------
assay: clinical; conditions: female, human, plasma, oral, 1 mg, mean half-life
assay metric: half-life (h)

- query smiles: "CC(C)(C#N)c1cc(Cn2cncn2)cc(C(C)(C)C#N)c1"
  numeric result: 40.6
